The values you see were collected from PubChem BioAssay.

PROTOCOL NOTES: budding yeast growth changes without added modifier – OD600, strain BY4716, 24 h, basal condition, primary screen (AID 1173)
MEASUREMENT CONTEXT: S. cerevisiae BY4716 growth, OD600, 24 h; higher = more signal, called active from +8 up or from −8 down
Label Fulfilled for high-side z-score (at or above -0.01) and Not fulfilled for low-side z-score (below it).

molecule="C[C@H]1NC(=O)C([C@@H](C)OCc2ccccc2)NC(=O)[C@@]23C(=O)N[C@@H](Cc4ccccc4)C2[C@H](C)[C@@]2(C)O[C@H]2C3/C=C/CC/C=C/CNC1=O (some centres undefined)" class_label="Not fulfilled"
molecule=CCOC(=O)C[C@H]1[C@H](OC(=O)c2ccccc2-c2ccccc2)[C@@H](NC(=O)c2ccccc2)c2cc(OCCCO)ccc2N1C(=O)Cc1ccc(OC)cc1 class_label=Fulfilled
molecule="C=CCC(OC(C)=O)[C@@H]1[C@@H](N(Cc2cccc3ccccc23)C(=O)c2ccc(C)cc2)c2cc(OCCCO)ccc2N1C(=O)c1ccc2ccccc2c1 (some centres undefined)" class_label="Not fulfilled"
molecule=[N-]=[N+]=NCc1ccccc1C[C@]1(C(=O)NCCN2CCOCC2)N=C(c2ccc(OCCCO)cc2)O[C@H]1c1ccccc1 class_label="Not fulfilled"
molecule="C=CCC(OC(C)=O)[C@@H]1[C@@H](N(Cc2ccc(-c3ccccc3)cc2)C(=O)Cc2ccc(OC)cc2)c2cc(OCCCO)ccc2N1C(=O)c1ccc(-c2ccccc2)cc1 (some centres undefined)" class_label="Not fulfilled"
molecule="C[C@]12C(=O)N(CCCO)[C@@H]3C(=O)N(c4ccc(Cl)cc4)CC=CC31O[C@@H]1/C=C\\CCCOC(=O)C12 (some centres undefined)" class_label="Not fulfilled"
molecule=C=CCNC(=O)[C@H]1[C@@H]2C(=O)O[C@@H](c3ccccc3)[C@@H](c3ccccc3)N2[C@@H](c2ccc(OCCO)cc2)[C@]12C(=O)N(C(=O)OCCOC)c1ccc(C#CC3=CCCCC3)cc12 class_label=Fulfilled
molecule=COC(=O)[C@@]1(Cc2ccc(OC)cc2)[C@H]2c3cc(C(=O)N4CCCC4)n(CCF)c3C[C@H]2CN1C(=O)c1ccccc1 class_label=Fulfilled
molecule="CC(C)N1CC=CC23O[C@@H]4C=CCOC(=O)[C@@H]4[C@H]2C(=O)N(CCCCCCO)[C@@H]3C1=O (some centres undefined)" class_label=Fulfilled
molecule=CC1=C2[C@@H](CCc3ccccc3)OB(O)C[C@@H]2[C@@H]2C(=O)C=CC(=O)[C@@H]2C1 class_label="Not fulfilled"
molecule=[N-]=[N+]=Nc1ccccc1C[C@]1(C(=O)NCCN2CCOCC2)N=C(c2ccc(OCCCO)cc2)O[C@H]1c1ccccc1N=[N+]=[N-] class_label="Not fulfilled"
molecule="C=CC[C@@]1(C(=O)NCC(O)CO)N=C(c2ccc(OCCCO)cc2)O[C@@H]1c1ccccc1 (some centres undefined)" class_label="Not fulfilled"
molecule=Cc1ccc(F)cc1S(=O)(=O)N[C@@H]1CCN(C(=O)c2ccc(OC(C)C)cc2)C1 class_label="Not fulfilled"
molecule=COC(=O)[C@@]1(Cc2ccc(OC)cc2)[C@H]2c3cc(C(=O)N4CCCC4)n(CCc4ccc(O)c(OC)c4)c3C[C@H]2CN1C(=O)c1ccccc1 class_label=Fulfilled
